All values here come from patent EP4775579A1.

# ASSAY NAME: physchem
# MEASUREMENT PARAMETERS: methanol
Structures can show the parent of a compound that is named as a salt.

[
  {
    "MOLECULE": "COc1ccc2cc3n(cc-2c1=O)CCc1cc2c(cc1-3)OCO2 [berberrubine acetate salt]",
    "solubility at 0.5 h, mg/mL": 34
  }
]

---

# ASSAY NAME: physchem
# MEASUREMENT PARAMETERS: water
Structures can show the parent of a compound that is named as a salt.
REPORTED PROPERTY: solubility at 0.5 h (mg/mL)

[
  {
    "COMPOUND": "COc1ccc2cc3n(cc-2c1=O)CCc1cc2c(cc1-3)OCO2 [berberrubine acetate salt]",
    "REPORTED PROPERTY": "solubility at 0.5 h",
    "VALUE OBSERVED": 30
  }
]
